Molecular target: rat MCH-1 (Rattus norvegicus)
Sequence (P97639 whole entry): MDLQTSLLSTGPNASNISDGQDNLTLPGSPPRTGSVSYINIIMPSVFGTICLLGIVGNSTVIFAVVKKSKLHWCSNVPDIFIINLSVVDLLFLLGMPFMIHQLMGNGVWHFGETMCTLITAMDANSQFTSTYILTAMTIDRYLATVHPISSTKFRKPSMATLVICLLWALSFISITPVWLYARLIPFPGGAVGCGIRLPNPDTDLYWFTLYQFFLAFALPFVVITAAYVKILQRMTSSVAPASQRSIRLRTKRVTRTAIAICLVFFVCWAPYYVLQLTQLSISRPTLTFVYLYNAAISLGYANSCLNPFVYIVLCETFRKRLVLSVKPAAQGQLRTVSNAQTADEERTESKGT
Experiment: Radioligand binding assay at cloned rat MCH1 receptor ([3H] Compound A)
Design: host or cells: Peak rapid 293 (Peakr293) cells, transient calcium phosphate transfection, membranes
Details: cloned rat MCH1 receptor; 0.08 nM [3H] Compound A; Peakr293 cell membranes; read-out: Ki (nM) rMCH1
The following molecules are shown together with reported Ki values.
Measured Property: Ki (nM)

[
  {
    "Molecule": "CC(C)C(=O)Nc1cccc(C2CCN(CCCCC(Oc3ccc(Cl)cc3)c3ccccc3)CC2)c1 (centres unmarked)",
    "Measured Property": "Ki",
    "Scale Unit": "nM",
    "Measured Result": 6.8
  },
  {
    "Molecule": "CC(C)C(=O)Nc1cccc(C2CCN(CCCCC(Oc3cc(C(F)(F)F)ccc3F)c3ccc(Cl)cc3)CC2)c1 (centres unmarked)",
    "Measured Property": "Ki",
    "Scale Unit": "nM",
    "Measured Result": 12.3
  },
  {
    "Molecule": "CC(=O)Nc1cccc(C2CCN(CCCNC(=O)C3=C(C)NC(=O)CC3c3ccc(F)c(F)c3)CC2)c1 (centres unmarked)",
    "Measured Property": "Ki",
    "Scale Unit": "nM",
    "Measured Result": 23.1
  },
  {
    "Molecule": "O=C(Nc1cccc(C2CCN(CCCSc3ccccc3)CC2)c1)C1CC1",
    "Measured Property": "Ki",
    "Scale Unit": "nM",
    "Measured Result": 54
  },
  {
    "Molecule": "CC(C)C(=O)Nc1cccc(C2CCN(CCCc3c(-c4ccccc4Br)n(C)c4ccccc34)CC2)c1",
    "Measured Property": "Ki",
    "Scale Unit": "nM",
    "Measured Result": 4.9
  },
  {
    "Molecule": "CCC(=O)Nc1cccc(C2CCN(CCCC(=O)c3ccc(C)c(C)c3)CC2)c1",
    "Measured Property": "Ki",
    "Scale Unit": "nM",
    "Measured Result": 27.6
  },
  {
    "Molecule": "CC(C)C(=O)Nc1cccc(C2CCN(CCCc3c(-c4ccc(Br)cc4)n(C)c4ccccc34)CC2)c1",
    "Measured Property": "Ki",
    "Scale Unit": "nM",
    "Measured Result": 9.3
  },
  {
    "Molecule": "CC(=O)c1ccccc1OC(CCCCCN1CCC(c2cccc(NC(=O)C(C)C)c2)CC1)c1ccccc1F (centres unmarked)",
    "Measured Property": "Ki",
    "Scale Unit": "nM",
    "Measured Result": 10.1
  }
]
